Known pIC50 of a selection of compounds
target_of_assay: triosephosphate isomerase (TPI) (Giardia intestinalis)
Construct: His-tag (TEV-cleavable) (cleaved yes); made in house
Sequence (P36186 whole entry): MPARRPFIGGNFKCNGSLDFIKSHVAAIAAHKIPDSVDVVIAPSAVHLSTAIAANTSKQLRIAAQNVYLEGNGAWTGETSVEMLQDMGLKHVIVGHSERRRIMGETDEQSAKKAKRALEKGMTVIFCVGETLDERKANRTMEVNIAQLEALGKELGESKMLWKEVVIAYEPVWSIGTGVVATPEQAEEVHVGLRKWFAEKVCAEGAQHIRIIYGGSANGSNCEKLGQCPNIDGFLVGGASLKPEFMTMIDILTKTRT
test: Inactivation of recombinant TPI enzyme with compounds
Assay type: biochemical
Procedure: The TPI from G. lamblia was expressed and purified. […] When the culture reached A600 = 0.8, it was induced using 0.4 mM IPTG and incubated overnight at 30 °C with shaking at 180 rpm. […] The enzyme concentration was spectrophotometrically determined at 280 nm, and the enzyme was used immediately. Enzyme activity of TPI was determined spectrophotometrically as described by monitoring the conversion of glyceraldehyde-3-phosphate (GAP) to dihydroxyacetone phosphate (DHAP). […]
The quantity pIC50 is defined as the negative base-10 logarithm of the molar concentration.

Would you please look over these solved cases?
INSERT INTO results (compound, measured_endpoint, measured_result) VALUES
  ('Cc1c(OCC(F)(F)F)ccnc1C[S+]([O-])c1nc2ccc([N+](=O)[O-])cc2[nH]1 (centres unmarked)', 'pIC50', 4.70),
  ('O=[N+]([O-])c1ccc2nc([S+]([O-])Cc3ccccn3)[nH]c2c1 (centres unmarked)', 'pIC50', 4.92),
  ('COc1c(C)cnc(C[S+]([O-])c2nc3ccccc3[nH]2)c1C (centres unmarked)', 'pIC50', 4.43);

Here's the next entry for you.
Challenge: What is its pIC50 for triosephosphate isomerase (TPI) (Giardia intestinalis)? Entry: Cc1c(OCC(F)(F)F)ccnc1C[S+]([O-])c1nc2ccccc2[nH]1 (centres unmarked) [Lansoprazole, reference compound]
Response given: 4.18
